experimental target: hP2X3 receptor (Homo sapiens, UniProt P56373)
Construct: expressed in transfected cells
Sequence (P56373 whole entry): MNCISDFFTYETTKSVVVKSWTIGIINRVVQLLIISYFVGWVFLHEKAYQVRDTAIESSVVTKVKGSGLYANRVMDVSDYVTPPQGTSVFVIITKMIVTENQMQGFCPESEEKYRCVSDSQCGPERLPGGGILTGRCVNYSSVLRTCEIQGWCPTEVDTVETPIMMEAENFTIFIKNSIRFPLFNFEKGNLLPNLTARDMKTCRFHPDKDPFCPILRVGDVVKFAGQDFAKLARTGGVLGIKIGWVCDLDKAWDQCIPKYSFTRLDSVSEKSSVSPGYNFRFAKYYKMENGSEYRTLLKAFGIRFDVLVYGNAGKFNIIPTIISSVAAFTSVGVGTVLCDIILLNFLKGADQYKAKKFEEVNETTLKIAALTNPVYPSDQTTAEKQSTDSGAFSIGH
measurement description: Antagonistic activity against hP2X3 receptor by FLIPR calcium flow assay
Assay type: cell-based
stated conditions: human cells stably transfected with hP2X3; agonist α,β-meATP 400 nM
readout kind: IC50 (µM)
Express it in µM; write the number only.

For the compound shown here, `Cc1cnc(-c2cc(O[C@@H]3CCOC3)cc(C(=O)N[C@H](C)c3cnc(C(F)(F)F)nc3)c2F)s1` , give the reported IC50.
0.083

For `Cc1cnc(-c2cc(OCC3CC3)cc(C(=O)N[C@H](C)c3cnc(C(F)(F)F)nc3)c2F)s1` , what is its reported IC50?
1.36

Please report the recorded IC50 for `Cc1cnc(-c2cc(OC3CCN(C)CC3)cc(C(=O)N[C@H](C)c3cnc(C(F)(F)F)nc3)c2F)s1` .
0.433

The record that follows has no IC50 shown yet.
What value of measured IC50 is listed for Cc1cnc(-c2cc(OC(C)C(C)O)cc(C(=O)N[C@H](C)c3cnc(C(F)(F)F)nc3)c2F)s1 (single isomer, unassigned) [Compound I-4] ?
0.063

----------
measurement description: Pharmacokinetic assay in mouse
Type: in vivo, ICR mice
stated conditions: mouse, plasma, po; male ICR mice, intragastric administration, 10 mg/kg
Experimental: For a mouse pharmacokinetic assay, male ICR mice (20 g to 25 g) were selected and fasted overnight. Three mice were intragastrically administered with 10 mg/kg of the corresponding compound. […] The supernatant was mixed with 3 times the amount of water, and an appropriate amount of the mixed solution was taken for LC-MS/MS analysis. The primary pharmacokinetic parameters were analyzed by WinNonlin 7.0 software non-atrioventricular model.
readout kind: AUC(0-t)

Some entries whose results are on file:
# lookup: AUC(0-t) of Cc1cnc(-c2cc(O[C@@H]3CCOC3)cc(C(=O)N[C@H](C)c3cnc(C(F)(F)F)nc3)c2F)s1 [Compound I-1]
12100 ng·h/mL

Value lookup for AUC(0-t); key = Cc1cnc(-c2cc(O[C@H](C)[C@H](C)O)cc(C(=O)N[C@H](C)c3cnc(C(F)(F)F)nc3)c2F)s1 [Compound I-29]
14900 ng·h/mL

Entry under review: Cc1cnc(-c2cc(O[C@H](C)[C@@H](C)O)cc(C(=O)N[C@H](C)c3cnc(C(F)(F)F)nc3)c2F)s1 [Compound I-30] . Reported AUC(0-t)?
13800 ng·h/mL

Next:
Could you tell me which AUC(0-t) is on file for Cc1cnc(-c2cc(O[C@@H](C)[C@H](C)O)cc(C(=O)N[C@H](C)c3cnc(C(F)(F)F)nc3)c2F)s1 [Compound I-28] ?
8760 ng·h/mL

----------
experimental target: hP2X3 receptor (Homo sapiens)
measurement description: Antagonistic activity against hP2X3 receptor by FLIPR calcium flow assay
stated conditions: human cells stably transfected with hP2X3; agonist α,β-meATP 400 nM
Counter-ions that a name gives are not always drawn.
readout kind: IC50
The number alone won't do; follow it with the unit.

So what does the record say about IC50 for Cc1cnc(-c2cc(O[C@@H](C)[C@H](C)O)cc(C(=O)N[C@H](C)c3cnc(C(F)(F)F)nc3)c2F)s1 [Compound I-28] ?
63 nM

Looking for the measured IC50 of Cc1cnc(-c2cc(O[C@H](C)[C@H](C)O)cc(C(=O)N[C@H](C)c3cnc(C(F)(F)F)nc3)c2F)s1 [Compound I-29] , can you help?
57 nM

New cases:
Value lookup for IC50; key = Cc1cnc(-c2cc(OC3COC3)cc(C(=O)N[C@H](C)c3cnc(C(F)(F)F)nc3)c2F)s1 [Compound I-14]
99 nM

Give its IC50 value. Item: Cc1cnc(-c2cc(O[C@@H]3CCOC3)c(F)c(C(=O)N[C@H](C)c3cnc(C(F)(F)F)nc3)c2)s1 [Compound I-2]
298 nM

// returns reported IC50 for input Cc1cnc(-c2cc(OC[C@@H]3COCCN3C)cc(C(=O)N[C@H](C)c3cnc(C(F)(F)F)nc3)c2F)s1 [Compound I-9]
305 nM

Query (molecule): Cc1cnc(-c2cc(O[C@H](C)[C@@H](C)O)cc(C(=O)N[C@H](C)c3cnc(C(F)(F)F)nc3)c2F)s1 [Compound I-30] ; field requested: IC50
48 nM

// IC50 lookup, key: Cc1cnc(-c2cc(OC[C@H]3CN(C)CCO3)cc(C(=O)N[C@H](C)c3cnc(C(F)(F)F)nc3)c2F)s1 [Compound I-19]
310 nM

So what does the record say about IC50 for CC(O)C(C)Oc1cc(C(=O)N[C@H](C)c2cnc(C(F)(F)F)nc2)c(F)c(-c2ncc(Cl)s2)c1 (some centres unmarked) [Compound I-7] ?
271 nM

Consider the molecule shown here: Cc1cnc(-c2cc(OC(C)C(C)O)cc(C(=O)N[C@H](C)c3cnc(C(F)(F)F)nc3)c2F)s1 (single isomer, unassigned) [Compound I-5] What is its recorded IC50?
50 nM

Quick one: IC50 for Cc1cnc(-c2cc(OC[C@H]3CNCCO3)cc(C(=O)N[C@H](C)c3cnc(C(F)(F)F)nc3)c2F)s1 [Compound I-18, hydrochloride] ?
448 nM

If you can, please state the reported IC50 value of Cc1cnc(-c2cc(O[C@@H](C)[C@@H](C)O)cc(C(=O)N[C@H](C)c3cnc(C(F)(F)F)nc3)c2F)s1 [Compound I-27] .
67 nM
